conditions: in ethyl acetate, 293.15 K
Property Name: solubility (mole fraction)

Mol Smiles	Property Name	Data Value
O=C(Cn1cnnn1)N[C@@H]1C(=O)N2C(C(=O)O)=C(CSc3nncs3)CS[C@H]12	solubility (mole fraction)	0.0003

* * *

conditions: in ethyl acetate, 303.15 K

Mol Smiles	solubility (mole fraction)
O=C(Cn1cnnn1)N[C@@H]1C(=O)N2C(C(=O)O)=C(CSc3nncs3)CS[C@H]12	0.000371

* * *

settings: in acetonitrile, 298.15 K

Mol Smiles	solubility (mole fraction)
O=C(Cn1cnnn1)N[C@@H]1C(=O)N2C(C(=O)O)=C(CSc3nncs3)CS[C@H]12	0.000184
